Listed here are binders together with their documented Human GLP-1R potency [EC50 (pM)].
- Test target: human GLP-1 receptor (human, UniProt P43220 24-463)
- Test details: cell-based or functional assay
Starred links: 1 amine or outer side, 2 acyl side, 3 side chain; linkers in the order of their positions; H or OH if unused. Non-standard residues stand in square brackets, D forms with d. Groups on a side chain read outwards from the residue. *: point of attachment. C18 diacid = O=C(O)CCCCCCCCCCCCCCCCC(=O)*; C16 diacid = O=C(O)CCCCCCCCCCCCCCC(=O)*; γGlu = O=C(O)[C@H](CCC(=O)[*:2])N[*:1]; AEEA = NCCOCCOCC(=O)O; Aib = CC(C)(N)C(=O)O
Value kind: Human GLP-1R potency [EC50 (pM)]

1) Compound 0640 (peptide) peptide: H[Aib]EGTFTSDVSK([AEEA-AEEA-γGlu-C18 diacid])YLEEQAAREFIAWLVRGRGGGGGEASELSTAALGRLSAELHELATLPRTETGSGSP-NH2 : 2.3
2) Compound 0085 (peptide) peptide: H[Aib]EGTFTSDVSSYLEGQAAREFIAWLVRGRGQEPGQAPK([AEEA-AEEA-γGlu-C18 diacid])EASELSTAALGRLSAELHELATLPRTETGSGSP-NH2 : 2.2
3) Compound 0576 (not fully specified (residue 21)) peptide: H[Aib]EGTFTSDVSK([AEEA-AEEA-γGlu-C16 diacid])YLEEQAARKFIEWLVRGRGEGGGGGASELSTAALGRLSAELHELATLPRTETGSGSP-NH2 : 2.9
4) Compound 0637 (peptide) peptide: H[Aib]EGTFTSDVSSYLEEQAAREFIAWLVRGRK([AEEA-AEEA-γGlu-C18 diacid])GGGGSGGGEASELSTAALGRLSAELHELATLPRTETGSGSP-NH2 : 1.9

Source: patent US20260132182A1
